src = a melting point compilation (Tetko et al.; mined from patent text by program, amines drawn as free bases though some values may be those of a salt)

- given_smiles: "CCOC(=O)c1cnc2ccc(C#N)cc2c1NCc1ccc(OC)c(Cl)c1"
  melting point: "161 to 162 °C"
- given_smiles: "N#Cc1c(N2CCCCC2)c(C(=O)OCCO)c2ccccn2c1=O"
  melting point: "140 to 141 °C"
- given_smiles: "Cc1cc(C(O)=S)cc(N)c1Cl"
  melting point: "225 °C"
- given_smiles: "COc1cc2cc(C(=O)Nc3cc(NC(=O)OCc4ccccc4)c4ccccc4c3CCCl)[nH]c2c(OC)c1OC"
  melting point: "58 to 62 °C"
- given_smiles: "CC(C)COc1cc(O)c2c(c1)OC(C)(C)CC2=O"
  melting point: "77 to 79 °C"
- given_smiles: "COc1cc(N)c(Cl)cc1C(=O)NC1CCN(CC2CCN(C(=O)c3ccccc3)CC2)CC1"
  melting point: "114 to 116 °C"
- given_smiles: "CCCCCCCC(=O)N(C)Cc1cc(-c2ccc(C=C3SC(=O)NC3=O)cc2)ccc1OCc1ccccc1"
  melting point: "158 °C"
- given_smiles: "CC(=O)C(=O)Nc1ccc(C#N)c(C(F)(F)F)c1"
  melting point: "147 to 148 °C"
- given_smiles: "CN(c1ccccc1)c1nc(Cl)nc2sccc12"
  melting point: "167 to 168 °C"
- given_smiles: "Cc1cccc(Nc2ncnc3ccc(N)cc23)c1"
  melting point: "205 to 206 °C"

###

Measured melting point by item
recorded_metric: melting point

- compound: "Cn1cc(C2=C(c3cn(CCCS(C)(=O)=O)c4ccccc34)C(=O)NC2=O)c2ccccc21"
  recorded_metric: "melting point"
  readout_value: "225 to 227 °C"
- compound: "Cc1cc2nc(Cl)sc2cc1C"
  recorded_metric: "melting point"
  readout_value: "175 °C"
- compound: "N#Cc1nc2ccccc2n(-c2ccc(Cl)cc2)c1=O"
  recorded_metric: "melting point"
  readout_value: "232 to 235 °C"
- compound: "COC(=O)[C@@H]1C[C@H](C(=O)O)Nc2cc(C)cc(C)c21 (relative stereo)"
  recorded_metric: "melting point"
  readout_value: "173 °C"
- compound: "COc1ccc2[nH]c3c(c2c1)C(C)CNC3=O (stereo unspecified)"
  recorded_metric: "melting point"
  readout_value: "220 °C"
- compound: "COc1ccc(Cl)cc1C(=O)NCc1ccc(CCC(=O)O)cc1"
  recorded_metric: "melting point"
  readout_value: "152 to 153 °C"
- compound: "COC(=O)c1ccc(-c2ccncc2)c(C)c1"
  recorded_metric: "melting point"
  readout_value: "70 to 71 °C"
- compound: "CC1(C)CCC(C)(C)c2c(OCc3ccc(F)cc3)cc(C(O)c3ccc4cc(C(=O)O)ccc4c3)cc21 (stereo unspecified)"
  recorded_metric: "melting point"
  readout_value: "212 °C"
- compound: "CCOC(=O)c1c(CN(CC)CC)nc2sc3c(c2c1-c1ccc(Cl)cc1)CCN(C(=O)c1ccccc1)C3"
  recorded_metric: "melting point"
  readout_value: "177 to 178 °C"
- compound: "COc1cccc(NC(=O)/C=C(\\C)c2cc3cccc(OCCCC(=O)O)c3o2)c1"
  recorded_metric: "melting point"
  readout_value: "156 to 158 °C"
- compound: "CCC(=O)c1ccsc1N(C)C(C)=O"
  recorded_metric: "melting point"
  readout_value: "78.5 to 79.5 °C"
- compound: "CC(C)(C)c1cc(-c2n[nH]c(=S)[nH]2)cc(C(C)(C)C)c1O"
  recorded_metric: "melting point"
  readout_value: "271 °C"
- compound: "CCNC(=S)NS(=O)(=O)c1cc2c(cc1OC)OCCC2CNC(=O)c1cc(Cl)ccc1OC (stereo unspecified)"
  recorded_metric: "melting point"
  readout_value: "196 to 197 °C"
- compound: "CC(CNC(=O)N(CCC(F)(F)F)CCC12CC3CC(CC(C3)C1)C2)Cc1ccncc1 (stereo unspecified)"
  recorded_metric: "melting point"
  readout_value: "81.1 to 84.1 °C"
- compound: "CC(C)(C)[C@@H]1OC(=O)[C@@H]2[C@H]1C2(C)C"
  recorded_metric: "melting point"
  readout_value: "113 °C"
- compound: "Cc1ccc(-c2ccc3ccccc3c2)n1CC[C@H]1C[C@H](O)CC(=O)O1 (relative stereo)"
  recorded_metric: "melting point"
  readout_value: "45 to 50 °C"
- compound: "CCNC(=O)c1cccc([N+](=O)[O-])c1"
  recorded_metric: "melting point"
  readout_value: "118 to 120 °C"
- compound: "Cn1ncc2c(c1=O)C(Cc1ccccc1)NCCS2 (stereo unspecified)"
  recorded_metric: "melting point"
  readout_value: "112 to 114 °C"
- compound: "C(CCc1cncn1Cc1ccccc1)=C(c1ccccc1)c1ccccc1"
  recorded_metric: "melting point"
  readout_value: "161 to 168 °C"
- compound: "Cc1nccn1-c1cc(N)cc(C(F)(F)F)c1"
  recorded_metric: "melting point"
  readout_value: "127 to 131 °C"
- compound: "CC(=NNC(=O)c1ccccc1)c1cccc(Cl)c1O"
  recorded_metric: "melting point"
  readout_value: "202 to 203 °C"

###

- molecule: "Nc1ncc2cc(-c3c(Cl)cccc3Cl)c(=O)n(Cc3ccccc3)c2n1"
  melting point: "220 to 222 °C"
- molecule: "CCOC(=O)c1nc(C)n2c1CN=C(c1ccccc1Cl)c1cc(Cl)ccc1-2"
  melting point: "214 to 215 °C"
- molecule: "Cc1c(-c2c(F)cc(Cl)c(=O)n2C)nn(C)c1C#N"
  melting point: "190 to 191 °C"
- molecule: "CC1(C(=O)O)CCc2onc(-c3ccc(Cl)cc3)c2CC1 (stereo not given)"
  melting point: "163 °C"
- molecule: "COc1cc(-n2c(C)c(CC(=O)O)c3cc(C)ccc32)nc(OC)n1"
  melting point: "197 to 198 °C"
- molecule: "c1ccc(CSc2nc[nH]n2)cc1"
  melting point: "79 to 80 °C"
- molecule: "CC(C)CC(NS(=O)(=O)c1ccc(Cl)cc1)C(=O)Nc1ccc(CC(=O)O)cc1 (racemic)"
  melting point: "208 to 209 °C"
- molecule: "CCOC(=O)C(C(C)C)S(=O)(=O)c1ccc(OC)cc1 (stereo not given)"
  melting point: "53 °C"
- molecule: "Cn1nc(-c2c(F)cccc2Cl)nc1-c1ccc(COc2ncc(C(F)(F)F)cc2Cl)c(Cl)c1"
  melting point: "47 to 49 °C"
- molecule: "c1ccc(-c2ncn(C3CCCCO3)c2-c2ccccc2)cc1 (stereo not given)"
  melting point: "104 to 105 °C"
- molecule: "COC(=O)NC1(c2ccccc2)CCN(Cc2ccccc2)CC1"
  melting point: "121 to 122 °C"
- molecule: "CC1CC2C3CCC4=CC(=O)C=CC4(C)C3=CCC2(C)C1C(=O)CN1CCN(c2cc(NCC(C)(C)C)nc(NC(C)(C)C)n2)CC1 (stereo not given)"
  melting point: "155 to 160 °C"
- molecule: "OC[C@H](O)[C@H](O)[C@@H](O)[C@@H](O)C=NNc1ccccc1"
  melting point: "198 to 199 °C"
- molecule: "CC(C)S(=O)c1ccc2[nH]nc(Nc3nccs3)c2c1 (stereo not given)"
  melting point: "> 240 °C"
- molecule: "N#CCc1c(Br)csc1Br"
  melting point: "75.5 to 77 °C"
- molecule: "N=C(Nc1ccc(C2CCCC2)c(CN2CCC[C@H]2CO)c1)c1cccs1"
  melting point: "132 to 133 °C"
- molecule: "CCCc1c(OCC(O)COc2cccc(NC(=O)C(=O)OCC)c2)ccc(C(C)=O)c1O (stereo not given)"
  melting point: "98 to 101 °C"
- molecule: "CCOCc1nc2c(N)nc3cc(-c4ccccc4)ccc3c2n1CC(C)(C)NC(=O)NC1CCCCC1"
  melting point: "152 to 156 °C"
- molecule: "Clc1ccc(C(Cn2cncn2)OCc2ccccc2Cl)c(Cl)c1 (stereo not given)"
  melting point: "106 °C"
- molecule: "Cc1ccc2c(c1)C1CN(CCO)CCC1N2 (stereo not given)"
  melting point: "182 to 185 °C"

###

- compound: "OC1CSC(Oc2cc(-c3ccncc3)ccc2Cl)C(O)C1O (stereo unspecified)"
  melting point: "189 °C"
- compound: "COc1ccc(C2(C#N)CCC(=O)CC2)c2c1OCCO2"
  melting point: "157 to 161 °C"
- compound: "O=C(Cl)N1CCOCC1"
  melting point: "138 to 139 °C"
- compound: "COC(=O)C(Cc1ccc(OCCc2nc(-c3ccccc3)oc2C)cc1)C(=O)O (stereo unspecified)"
  melting point: "126 to 127 °C"
- compound: "CNC(=O)n1sc(OC2CCCCC2)nc1=O"
  melting point: "121 °C"
- compound: "C[C@H]1[C@H](O)C2(CC2)C(=O)N1c1ccc(C#N)c(Cl)c1"
  melting point: "169 to 172 °C"
- compound: "CC(C)c1ccc(-c2nnc(-c3ccc(C(=O)O)cc3)s2)cc1"
  melting point: "> 300 °C"
- compound: "CC(C)c1cc(O)cc(C(C)C)c1"
  melting point: "51 to 52 °C"
- compound: "Cc1oc(C2(C)CCCCC2)nc1CC#N"
  melting point: "57 to 58 °C"
- compound: "O=C(OCc1ccccc1)[C@@H]1CCCN1C(=O)CNC1Cc2ccccc2C1"
  melting point: "96 to 98 °C"
- compound: "COc1ccc2cccc(C=CN3C(=O)c4ccccc4C3=O)c2c1"
  melting point: "146 °C"
